The reported numbers originate from the RNAGym collection of RNA variant scans (doi:10.1126/science.aae0568).

Entries and their yeast fitness values follow.
B1: tRNA (parent)
chain: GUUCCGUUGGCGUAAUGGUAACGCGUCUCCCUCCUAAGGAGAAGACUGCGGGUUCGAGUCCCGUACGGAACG

Variants of: B1
experiment: yeast fitness relative to wild type (ratio to wild type); higher = fitter; tRNA-Arg(CCU), competitive growth, 37 C, YPD
Fewer inactive variants are shown than the library holds.
Lab note: record just the number, no unit beside it.

Here are 3 variants together with their reported answers.
INSERT INTO assay_data (variantspec, reportedendpoint, numericvalue) VALUES
  ('C62A C66G', 'yeast fitness', 0.718),
  ('U3C C62U', 'yeast fitness', 0.904),
  ('C5G C30G', 'yeast fitness', 0.523);

Reported yeast fitness, variant C46U G48C C62U : ____
1.03

Request the reported yeast fitness associated with A14G G41A A70G
0.638

Given the variant G12A C27A G67C , what is its reported yeast fitness?
0.548

Name the recorded yeast fitness for C11U A21U C55A .
0.632

Query (variant): U7C A21G A42U G58A ; field requested: yeast fitness
0.552
